Taken from paper PMC13384500.

Molecular target: T1, PSMα3 (Staphylococcus aureus, UniProt P0C805)
T1 chain: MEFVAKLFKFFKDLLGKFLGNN
Experiment: EMSA; apparent Kd, Hill fit with n > 1; 40 nM RNA; weaker than Poly(AU)
Settings: tags: none (unlabeled)

binder: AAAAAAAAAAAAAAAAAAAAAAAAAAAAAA (ssRNA) [Poly(A) RNA (30-nt oligoA)]
Kd, µM: 94.5
